FYI, the data here is from PubChem BioAssay (NCI).

Test system: NCI-H322M lung
testSummary: NCI-60 one-dose screen, 48 h
experimentalConditions: 10 µM unless noted
This is part of a sample that, as a whole, favours compounds with a hit. Of some 83,000 tested, about 20% had one in any assay. Activity calls are given as the source filed them. Rule for the calls: active = growth percent below 10; inactive = the rest.
Outcomes you can answer with include only these: true for active, false for inactive

Record request — test call for C=C1C(=O)O[C@@H]2C[C@@H](C)[C@H](OC)CC(=O)[C@](C)(OC(C)=O)C[C@H](OC(=O)/C(C)=C\C)[C@@H]12
false

Record request — test call for NC(=O)C(=Cc1ccc(Cl)cc1)C(N)=O
false

Record request — test call for COc1ccc(C2C(C#N)=C(N)Oc3c2sc2ccc(C)cc32)cc1 (stereo unspecified)
false

Record request — test call for CN1C(=O)N(C)C2Nn3c(s/c(=C\c4ccccn4)c3=O)=NC21 (stereo unspecified)
false

Record request — test call for O=C(CN1CCN(c2cc(=O)n(-c3ccccc3)c3ccccc23)CC1)Nc1ccc([N+](=O)[O-])cc1
false

Record request — test call for COc1ccc2c(ccn2C(=O)N2c3ccccc3Sc3ccccc32)c1
false

Record request — test call for COc1ccc(/C=N/Nc2nc(Nc3ccccc3)nc(Nc3ccc(S(N)(=O)=O)cc3)n2)cc1
false

Record request — test call for CC1CCc2c(sc3nc(SCC(=O)N/N=C/c4ccc(Cl)cc4)n(-c4ccccc4)c(=O)c23)C1 (stereo unspecified)
false

Record request — test call for CCOC(=O)C1=C(C)Nc2nc3ccccc3n2C1c1ccccc1 (stereo unspecified)
false

Record request — test call for C=CCn1c(SCC(=O)Nc2cccc(C(=O)/C=C/c3ccc(Cl)cc3)c2)nc2ccccc2c1=O
false

Record request — test call for C/C(=N\NC(=S)Nc1ccc(Br)cc1)c1cc2ccccc2oc1=O
false

Record request — test call for Oc1ccc(CSc2nnc(-c3ccc(Br)cc3)n2-c2ccccc2)c2cccnc12
false

Record request — test call for CC(=O)Nc1ccc(NC(=O)Nc2cccc(-c3nc(-c4ccc(NC(=O)c5cccnc5)cc4Cl)no3)c2)cc1C(F)(F)F
true

Record request — test call for O=[N+]([O-])c1ccc(-c2nnc(SCc3ccc(O)c4ncccc34)o2)cc1
false

Record request — test call for C#CCOc1ccc(/C=N/Nc2nc(-c3cc(Cl)ccc3Cl)cs2)cc1
false

Record request — test call for CNC(=O)c1cc(Oc2ccc3nc(NC(=O)c4cc(C)cc(C)c4)sc3c2)ccn1
false

Record request — test call for O=S(=O)(NC1CC2CCC1C2)c1ccc2c(c1)C(=NO)c1cc(S(=O)(=O)NC3CC4CCC3C4)ccc1-2 (stereo unspecified)
false

Record request — test call for C#C[C@]1(O)CC[C@H]2[C@@H]3CC=C4c5sc(Nc6cc(OC)ccc6OC)nc5CC[C@]4(C)[C@H]3CC[C@@]21C
false

Record request — test call for CCCCCCNC(=O)Oc1ccc(/C(=C(\C)c2ccc(OC)cc2)c2ccc(OCCN(C)C)cc2)cc1
false

Record request — test call for CCOP(=O)(OCC)OC[C@]12CCC(C)(C)C[C@H]1C1=CC[C@@H]3[C@@]4(C)C/C(=C\c5cccnc5)[C@H](OP(=O)(OCC)OCC)C(C)(C)[C@@H]4CC[C@@]3(C)[C@]1(C)CC2
false

Record request — test call for O=C(O)CNS(=O)(=O)c1ccc(Oc2ccc(S(=O)(=O)NCC(=O)O)cc2)cc1
false

Record request — test call for COc1ccc2c(C3=C(c4c[nH]c5ccccc45)C(=O)N(O)C3=O)coc2c1
false

Record request — test call for CCOC(=O)C1=C(C)Nc2nnc(Nc3ccccc3)n2C1c1ccccc1 (stereo unspecified)
false

Record request — test call for N#Cc1c(NC(=O)c2ccc(F)c(Cl)c2)sc2c1CCC(=O)C2
false

Record request — test call for Oc1ccc(-c2nnc(SCc3ccc(O)c4ncccc34)n2-c2ccccc2)cc1
false

Record request — test call for COc1cnc2c(c1)C(=O)c1c-2n(CCCn2ccnc2)c(=O)c2cc(OC)c(OC)cc12
true

Record request — test call for O=C(NNc1nc2cc(F)c(F)cc2n2cccc12)c1ncccn1
false

Record request — test call for O=C(COc1cccc2cccnc12)Nc1ccc(C(=O)/C=C/c2ccc(Cl)cc2)cc1
false

Record request — test call for COc1ccc(-c2nnc(SCc3ccc(O)c4ncccc34)o2)cc1
false

Record request — test call for Cc1ccc(-c2nnc3sc(C4=Cc5ccccc5OC=C4)nn23)cc1
false

Record request — test call for CC(=O)NC(C)(C)C(=O)N1CCC[C@H]1C(=O)NC(C)(C)C(=O)N[C@@H](C)C(=O)NC(C)(C)C(=O)N[C@@H](C)C(=O)N[C@@H](CCC(N)=O)C(=O)NC(C)(C)C(=O)N[C@H](C(=O)NC(C)(C)C(=O)NCC(=O)N[C@@H](CC(C)C)C(=O)NC(C)(C)C(=O)N1CCC[C@H]1C(=O)N[C@H](C(=O)NC(C)(C)C(=O)NC(C)(C)C(=O)N[C@@H](CCC(N)=O)C(=O)N[C@@H](CCC(N)=O)C(=O)N[C@H](CO)Cc1ccccc1)C(C)C)C(C)C
false

###

System: SK-MEL-28 melanoma
testSummary: NCI-60 one-dose screen, 48 h (100 = growth as untreated, 0 = no growth, -100 = all killed)
experimentalConditions: 10 µM unless noted
This is part of a sample that, as a whole, favours compounds with a hit. Of some 83,000 tested, about 20% had one in any assay.
quantity: growth (%)
Quick note: give the figure in %, leave out the unit.

Give reported growth value for Cc1cc(O)c(=O)cc2c1C[C@H]1CC(C)(C)/C=C/C[C@]3(C)Oc4cc(=O)c(O)cc(C)c4C[C@H]3C[C@H](O)[C@@]1(C)O2
11.1

Give reported growth value for Clc1ccc(-c2nc3ccc(/C(=N\N=C\c4ccccc4)c4ccccc4)cc3[nH]2)cc1
90.6

Give reported growth value for CC(=O)Nc1cccc(-n2cnc3cc(-c4ccc(O)cc4)ccc32)c1
78

Give reported growth value for COC[C@@]1(C)CC[C@]2(C)CC[C@]3(C)C(=CC[C@@H]4[C@@]5(C)CCCNC(C)(C)[C@@H]5CC[C@]43C)C2C1 (some centres not stated)
66.6

Give reported growth value for CC1(C)CC[C@]2(C(=O)O)CC[C@]3(C)C(=CCC4[C@@]5(C)C[C@@H](O)[C@@H]6OC(c7ccccc7O)OC[C@@]6(C)C5CC[C@]43C)C2C1 (some centres not stated)
84.7

Give reported growth value for O=C(O)c1ccc(-n2cc(CNc3ccc(F)cc3)c(-c3ccc(C(F)(F)F)cc3)n2)cc1
88.1

Give reported growth value for CCOC(=O)C1=C(C)Nc2nc3ccccc3n2C1c1ccccc1 (configuration not stated)
109

Give reported growth value for COc1ccc(S(=O)(=O)n2cc(C=O)c3ccccc32)c(OC)c1
83.8

Give reported growth value for O=C(NCCCNc1cc(-c2cn(-c3ccccc3)nc2-c2cccc(O)c2)ccn1)Nc1ccc(F)cc1
-61.3

Give reported growth value for O=S(=O)(Nc1cc(Cl)c(F)c(Cl)c1)c1ccc(-c2cnc(C3CC3)o2)cc1
66.7

Give reported growth value for C/C(=C(/C)C1CC1CCN(C(=O)c1ccc([N+](=O)[O-])cc1)S(=O)(=O)c1ccc(C)cc1)C1CCCCC1 (configuration not stated)
101

Give reported growth value for COc1ccc(NC(=O)[C@H](C)N)cc1C(=O)Nc1cccc(-c2cc(=O)c3c(OC)c(OC)c(OC)cc3o2)c1
88.2

Give reported growth value for c1cncc(-c2cn3nc(-c4c[nH]c5ccccc45)sc3n2)c1
55.5

Give reported growth value for CCC(CC)n1c(=O)c(SC2=NC3C(NN2)N(CC)C(=O)N3CC)c(C(=O)O)c2ccccc21 (configuration not stated)
65.4

Give reported growth value for O=C1/C(=C/c2ccc([N+](=O)[O-])cc2)SC(=Nc2ccccc2)N1Nc1ccccc1
83

Give reported growth value for CS(=O)(=O)c1ccc2c(c1)c1c(n2S(=O)(=O)c2ccc(Cl)cc2)CCCC1
64.2

Give reported growth value for CCCCCc1ccc(S(=O)(=O)N(C(C)=O)c2cccc(-c3csc(N(CCN4CCN(C)CC4)C(C)=O)n3)c2)cc1
-85.8

###

System: LOX IMVI melanoma
testSummary: NCI-60 one-dose screen, 48 h
experimentalConditions: 10 µM unless noted
About 83,000 compounds went through this panel and 20% of them were active in at least one assay; those are over-represented in the sample as a whole. Calls of active or inactive are those of the source. Rule for the calls: active = growth percent below 10; inactive = the rest.
Outcomes you can answer with include only these: active, inactive

Record request — test call for COC1=C(c2ccccc2)C(=O)C(OC)=C(c2ccccc2)C1=O
inactive

Record request — test call for COc1cc2cc(Oc3ccc(NC(=O)c4cccc(C(F)(F)F)c4)cc3)c(C)nc2cc1OCCN(C)C
active

Record request — test call for C=CCn1c(SCC(=O)Nc2ccc(OC)cc2)nnc1-c1ccc(Cl)cc1
inactive

Record request — test call for CCOC(=O)c1c(NCC(=O)Nc2cccc(Cl)c2)sc2c1CCCC2
inactive

Record request — test call for COc1ccc(-c2cc(-c3cccc4ccccc34)n3c(n2)nc2ccccc23)cc1
inactive

Record request — test call for C=C1C(=O)O[C@@H]2C[C@@H](C)CCC(=O)[C@](C)(OC(C)=O)C[C@H](OC(=O)/C(C)=C\C)[C@@H]12
inactive

Record request — test call for Clc1ccc(-c2csc(Nc3cccc(Nc4csc(-c5ccc(Cl)cc5)n4)c3)n2)cc1
inactive

Record request — test call for Nc1nc(N)c2c(n1)NC(c1ccccc1)CC(c1ccc(Nc3nc(NCCO)nc(Nc4ccc(Cl)cc4)n3)cc1)=N2 (centres undefined)
active

Record request — test call for O=C1Nc2cc(OC(F)(F)F)ccc2Oc2ccc(-c3ccnc(N4CCNCC4)c3)cc21
active
